Just for reference, patent US11261179B2 is where these values come from.

Give measured n (stoichiometry) for each item. Keep answers brief.
assayed.system: pVHL19 (VCB complex: VHL with Elongin B and Elongin C) (Homo sapiens, UniProt P40337)
Sequence (P40337 54-213): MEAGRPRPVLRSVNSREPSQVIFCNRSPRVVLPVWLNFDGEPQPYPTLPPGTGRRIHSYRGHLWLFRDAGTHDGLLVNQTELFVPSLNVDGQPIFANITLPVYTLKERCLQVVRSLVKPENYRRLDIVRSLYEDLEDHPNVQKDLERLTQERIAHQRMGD
Sequence (Q15370 1-104 partner limits assumed): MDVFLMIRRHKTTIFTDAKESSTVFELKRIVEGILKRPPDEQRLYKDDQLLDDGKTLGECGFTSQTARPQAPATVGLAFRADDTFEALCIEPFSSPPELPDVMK
Sequence (Q15369 17-112 partner limits assumed): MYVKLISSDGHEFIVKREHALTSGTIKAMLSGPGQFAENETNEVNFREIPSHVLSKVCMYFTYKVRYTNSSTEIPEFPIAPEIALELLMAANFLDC
assay: ITC titration against VCB, short VHL isoform
Format: binding
conditions: ITC, pVHL19, 25° C.
Experimental: Titrations were performed on an ITC200 micro-calorimeter (GE Healthcare). […] The final DMSO concentration was 0.15% v/v. VBC protein experiments were carried out in a buffer containing 20 mM Bis-tris propane, 150 mM NaCl, 1 mM TCEP, 0.15% v/v DMSO, pH 7.4. The titrations consisted of 19 injections of 2 μL compounds solution (150 μM, in the syringe) at a rate of 2 s/μL at 120 s time intervals into the VCB protein solution (20 μM, in the cell). […]
One number for each entry.

Look up n (stoichiometry) for the entries below, preserving their order.
1. Cc1ncsc1-c1ccc(CNC(=O)[C@H]2C[C@@H](O)CN2C(=O)[C@H](NC(=O)COCCOCCOCCOCCOCC(=O)N[C@H](C(=O)N2C[C@H](O)C[C@H]2C(=O)NCc2ccc(-c3scnc3C)cc2)C(C)(C)C)C(C)(C)C)cc1
2. Cc1ncsc1-c1ccc(CNC(=O)[C@@H]2C[C@@H](O)CN2C(=O)[C@@H](NC(=O)COCCOCCOCCOCC(=O)N[C@H](C(=O)N2C[C@H](O)C[C@H]2C(=O)NCc2ccc(-c3scnc3C)cc2)C(C)(C)C)C(C)(C)C)cc1
3. CC(=O)N[C@H](C(=O)N1C[C@H](O)C[C@H]1C(=O)NCc1ccc(-c2scnc2C)cc1OCCOCCOCCOCCOCCOc1cc(-c2scnc2C)ccc1CNC(=O)[C@@H]1C[C@@H](O)CN1C(=O)[C@@H](NC(C)=O)C(C)(C)C)C(C)(C)C
4. Cc1ncsc1-c1ccc(CNC(=O)[C@@H]2C[C@@H](O)CN2C(=O)[C@@H](NC(=O)COCCOCCOCCOCCOCCOc2cc(-c3scnc3C)ccc2CNC(=O)[C@@H]2C[C@@H](O)CN2C(=O)[C@@H](NC(=O)C2(C#N)CC2)C(C)(C)C)C(C)(C)C)cc1
5. CC(=O)N[C@H](C(=O)N1C[C@H](O)C[C@H]1C(=O)NCc1ccc(-c2scnc2C)cc1OCCOCCOCCOCCOCCOCC(=O)N[C@H](C(=O)N1C[C@H](O)C[C@H]1C(=O)NCc1ccc(-c2scnc2C)cc1)C(C)(C)C)C(C)(C)C

1. 0.964
2. 0.98
3. 0.535
4. 0.934
5. 0.498
